- target: Gastrin/cholecystokinin type B receptor (Mus musculus) (UniProt P56481)
- Sequence (P56481 whole entry): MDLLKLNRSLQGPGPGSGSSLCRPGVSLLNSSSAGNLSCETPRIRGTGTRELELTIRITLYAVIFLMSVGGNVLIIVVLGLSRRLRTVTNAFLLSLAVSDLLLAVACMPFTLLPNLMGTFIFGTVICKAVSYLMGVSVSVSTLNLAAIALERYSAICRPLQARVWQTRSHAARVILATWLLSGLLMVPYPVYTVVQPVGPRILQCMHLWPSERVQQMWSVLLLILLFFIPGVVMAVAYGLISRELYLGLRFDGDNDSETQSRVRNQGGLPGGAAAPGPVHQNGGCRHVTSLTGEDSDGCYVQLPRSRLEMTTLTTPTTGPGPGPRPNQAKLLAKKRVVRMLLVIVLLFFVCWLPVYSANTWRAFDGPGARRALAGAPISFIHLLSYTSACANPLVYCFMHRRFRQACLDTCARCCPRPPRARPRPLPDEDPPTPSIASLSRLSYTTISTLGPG
- test_protocol: Evaluated for inhibition of [125I]-CCK-8S binding to cholecystokinin CCK-B receptor from mouse brain membranes […] (in vitro)
- condition: 10 uM
Think of 20% as a floor: if inhibition stands on it or above, it is Criterion met; beneath it, Criterion not met.

Query: Threshold query (inhibition >= 20%) on `O=c1c2ccccc2nc(Cc2ccccc2)n1-c1ccccc1`
Response: Criterion not met

Query: Threshold query (inhibition >= 20%) on `O=c1c2ccccc2nc(CCCc2ccccc2)n1-c1ccccc1`
Response: Criterion met

Query: Threshold query (inhibition >= 20%) on `O=c1c2ccccc2nc(Cc2c[nH]c3ccccc23)n1-c1ccccc1`
Response: Criterion met

Others:
Query: Threshold query (inhibition >= 20%) on `O=c1c2ccccc2nc(CCc2ccccc2)n1-c1ccccc1`
Response: Criterion met
